# System: 12 hematological cancer cell lines
# ASSAY INFO: MTT cell viability, single agents
# Type: cell-based
# CONDITION SUMMARY: panel of 12 lymphoid malignant cell lines, 24-48 hours, range over cell lines
Each entry below lists one item and its recorded IC50 value.
REPORTED ENDPOINT: IC50

1. O=C(CCCCCCNC(=O)c1cnc(N(c2ccccc2)c2ccccc2Cl)nc1)NO    1.51 to 60 µM
2. N#CCNC(=O)c1ccc(-c2ccnc(Nc3ccc(N4CCOCC4)cc3)n2)cc1 [Momelotinib, momelotinib, reference compound]    1.8 to 9.6 µM
